- Tested on: NCI-H23 lung
- PROTOCOL DESCRIPTION: NCI tumour cell line growth inhibition, 48 h
PROPERTY MEASURED: TGI

Some solved cases for reference:
CCOC(=O)C1C(=O)CC(C)(O)C(C(=O)OCC)C1c1ccc(O)c(OC)c1 (configuration not stated) ... > 100 µM
CNNC1=NS(=O)(=O)c2cc(C(=O)OC)c(Cl)cc2S1 ... > 10 µM
CCOc1ccccc1N=NC1C(=O)N(C(=O)CC(=O)Nc2ccccc2Cl)N=C1C (configuration not stated) ... > 100 µM

Q: Record request: TGI value, item "CC(C)(C)c1cc2c(OP(c3ccccc3)c3ccccc3)c(c1)Cc1cc(C(C)(C)C)cc(c1OP(c1ccccc1)c1ccccc1)Cc1cc(C(C)(C)C)cc(c1OP(c1ccccc1)c1ccccc1)Cc1cc(C(C)(C)C)cc(c1OP(c1ccccc1)c1ccccc1)C2"
Ans: > 50 µM

Q: Same read-out for "Cc1ccc2nc(NC(=O)CSC(=S)N3CCN(Cc4ccccc4)CC3)sc2c1" ?
Ans: > 100 µM

Q: Same read-out for "COc1ccc(S(=O)(=O)N2CCCCC2)cc1NC(=O)c1[nH]c(C)c2c1CCCCC2=O" ?
Ans: > 100 µM

Q: Same read-out for "CCOC(=O)c1c2ccccc2n2c(=O)n(C)nnc12" ?
Ans: > 100 µM
